target: sLFA-1/ICAM-1 (Homo sapiens, UniProt P05107+P20701, DEL701-769); assay: sLFA-1/ICAM-1 ELISA; type: binding
Sequence (P20701 26-1090 limits assumed, stated change not applied): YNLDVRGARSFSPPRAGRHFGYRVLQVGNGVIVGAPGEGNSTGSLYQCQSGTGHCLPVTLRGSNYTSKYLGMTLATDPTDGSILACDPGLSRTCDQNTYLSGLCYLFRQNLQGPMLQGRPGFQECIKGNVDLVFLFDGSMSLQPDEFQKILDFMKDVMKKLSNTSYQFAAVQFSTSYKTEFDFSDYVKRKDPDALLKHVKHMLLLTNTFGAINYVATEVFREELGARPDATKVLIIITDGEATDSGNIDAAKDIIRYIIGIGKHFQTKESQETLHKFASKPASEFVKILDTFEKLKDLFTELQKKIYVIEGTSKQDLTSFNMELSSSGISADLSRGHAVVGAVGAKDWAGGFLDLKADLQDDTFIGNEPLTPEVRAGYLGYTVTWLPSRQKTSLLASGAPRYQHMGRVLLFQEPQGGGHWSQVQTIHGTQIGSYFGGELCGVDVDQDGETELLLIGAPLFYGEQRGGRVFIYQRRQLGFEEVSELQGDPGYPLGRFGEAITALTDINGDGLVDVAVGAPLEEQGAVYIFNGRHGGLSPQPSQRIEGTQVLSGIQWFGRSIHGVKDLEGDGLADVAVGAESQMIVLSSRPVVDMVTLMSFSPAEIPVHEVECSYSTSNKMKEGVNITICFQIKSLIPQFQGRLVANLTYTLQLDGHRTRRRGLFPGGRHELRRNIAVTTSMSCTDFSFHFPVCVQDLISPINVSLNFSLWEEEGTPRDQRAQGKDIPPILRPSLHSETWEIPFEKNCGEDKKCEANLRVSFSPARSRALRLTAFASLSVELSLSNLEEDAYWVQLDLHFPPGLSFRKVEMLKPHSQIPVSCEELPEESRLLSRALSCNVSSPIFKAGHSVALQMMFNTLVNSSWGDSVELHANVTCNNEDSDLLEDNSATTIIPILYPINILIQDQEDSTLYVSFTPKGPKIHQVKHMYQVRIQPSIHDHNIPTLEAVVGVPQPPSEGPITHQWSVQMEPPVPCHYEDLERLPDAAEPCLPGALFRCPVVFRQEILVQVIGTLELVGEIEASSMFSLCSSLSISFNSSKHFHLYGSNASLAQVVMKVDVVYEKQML
Sequence (P05107 23-700 limits assumed, stated change not applied): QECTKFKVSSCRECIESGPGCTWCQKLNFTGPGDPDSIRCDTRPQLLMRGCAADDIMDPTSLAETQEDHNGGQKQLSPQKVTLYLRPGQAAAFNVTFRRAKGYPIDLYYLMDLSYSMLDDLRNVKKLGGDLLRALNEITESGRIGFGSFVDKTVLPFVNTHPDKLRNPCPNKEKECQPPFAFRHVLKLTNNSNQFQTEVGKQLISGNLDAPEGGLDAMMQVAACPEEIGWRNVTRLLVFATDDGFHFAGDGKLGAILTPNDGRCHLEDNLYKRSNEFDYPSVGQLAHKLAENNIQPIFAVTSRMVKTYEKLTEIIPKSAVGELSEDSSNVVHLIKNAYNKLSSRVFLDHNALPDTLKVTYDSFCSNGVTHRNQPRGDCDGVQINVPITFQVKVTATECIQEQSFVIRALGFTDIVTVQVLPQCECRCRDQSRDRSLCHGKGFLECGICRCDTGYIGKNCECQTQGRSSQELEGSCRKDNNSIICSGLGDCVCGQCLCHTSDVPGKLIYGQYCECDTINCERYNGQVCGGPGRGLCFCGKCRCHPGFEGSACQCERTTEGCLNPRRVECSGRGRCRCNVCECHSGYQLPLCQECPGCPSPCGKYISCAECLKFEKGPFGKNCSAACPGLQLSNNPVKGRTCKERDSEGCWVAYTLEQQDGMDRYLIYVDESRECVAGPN
measured-endpoint: IC50

In [3]: df
Out[3]:
                                smiles_code  result
0  Cc1nc(NCCCc2cccc(O)c2)nc(C)c1C(=O)N[C@@H](CNC(=O)Nc1ccccc1)C(=O)O  166 nM

----------
target: sLFA-1/ICAM-1 (Homo sapiens, UniProt P05107+P20701, DEL701-769); assay: sLFA-1/ICAM-1 ELISA; format: binding; details: sLFA-1 coated plates, 5dICAM-Fc binding, ELISA; read-out: LFA-1/ICAM (IC50)
pIC50: −log10 of the molar value.
Record MET whenever pIC50 is at 7 or higher; record NOT MET when lower.

In [3]: df
Out[3]:
                                    compound  answer_label
 0  Cc1nc(NCc2ccccc2-c2cccc(O)c2)nc(C)c1C(=O)N[C@@H](CNC(=O)c1cccs1)C(=O)O [Example 12]       NOT MET
 1  Cc1cnc(C(=O)NC[C@H](NC(=O)c2c(C)nc(NCCCc3cccc(O)c3)nc2C)C(=O)O)cn1 [Example 101]           MET
 2  Cc1nc(NCCCc2cc(O)cc(F)c2)nc(C)c1C(=O)N[C@@H](CNC(=O)c1cccs1)C(=O)O [Example 64]           MET
 3  Cc1ccsc1C(=O)NC[C@H](NC(=O)c1c(C)nc(NCCCc2cccc(O)c2)nc1C)C(=O)O [Example 91]           MET
 4  Cc1nc(NCCCc2cccc(O)c2)ncc1C(=O)N[C@@H](CNC(=O)c1cccs1)C(=O)O [Example 76]           MET
 5  Cc1nc(NCCCc2cccc(O)c2)nc(C)c1C(=O)N[C@@H](CNC(=O)c1cnccn1)C(=O)O [Example 93]           MET
 6  Cc1nc(NCc2ccccc2-c2ccccc2O)nc(C)c1C(=O)N[C@@H](CNC(=O)c1cccs1)C(=O)O [Example 14]       NOT MET
 7  COC(=O)NC[C@H](NC(=O)c1c(C)nc(NCCCc2cccc(O)c2)nc1C)C(=O)O [Example 109]       NOT MET
 8  Cc1nc(NCCCc2ccc3cn[nH]c3c2)nc(C)c1C(=O)N[C@@H](CNC(=O)c1cccs1)C(=O)O [Example 63]       NOT MET
 9  Cc1nc(NCCCc2cc(O)ccc2Cl)nc(C)c1C(=O)N[C@@H](CNC(=O)c1cccs1)C(=O)O [Example 68]       NOT MET
10  Cc1nc(NC2CCc3cccc(O)c3C2)nc(C)c1C(=O)N[C@@H](CNC(=O)c1cccs1)C(=O)O (some centres unmarked) [Example 18]           MET
11  Cc1nc(NCCCc2cccc(O)c2)nc(C)c1C(=O)N[C@@H](CNC(=O)c1csc(-c2ccncc2)n1)C(=O)O (single isomer, unassigned) [Example 41]       NOT MET
12  Cc1nc(NCC#Cc2cccc(O)c2)nc(C)c1C(=O)N[C@@H](CNC(=O)c1cccs1)C(=O)O [Example 61]           MET
13  Cc1nc(NCCCc2cccc(O)c2)nc(C)c1C(=O)N[C@@H](CNC(=O)c1cc(O)cc(O)c1)C(=O)O [Example 81]           MET
14  Cc1nc(NCCCc2cccc(O)c2)nc(C)c1C(=O)N[C@@H](CNC(=O)c1cscn1)C(=O)O [Example 46]           MET

These entries and their values trace back to patent US20120270875A1.
